Let's go through some recorded nsp1 signal, mean of duplicate wells values for NSP1 (Severe acute respiratory syndrome coronavirus 2) together.
Observation type: nsp1 signal, mean of duplicate wells

- Compound: "CCOC(=O)c1ccsc1NC(=O)CN1C(=O)NC(C)(c2cccc3ccccc23)C1=O (stereo not shown)"
  Measured target: "NSP1 (Severe acute respiratory syndrome coronavirus 2)"
  Observation type: "nsp1 signal, mean of duplicate wells"
  Measured result: 186.5
- Compound: "COc1ccc2oc(C(=O)OC(C)C(=O)Nc3sccc3C(N)=O)c(C)c2c1 (stereo not shown)"
  Measured target: "NSP1 (Severe acute respiratory syndrome coronavirus 2)"
  Observation type: "nsp1 signal, mean of duplicate wells"
  Measured result: 949
- Compound: "CCOc1cc(C(=O)Nc2ccc(Cl)c(-c3nc4ccccc4[nH]3)c2)cc(OCC)c1OCC"
  Measured target: "NSP1 (Severe acute respiratory syndrome coronavirus 2)"
  Observation type: "nsp1 signal, mean of duplicate wells"
  Measured result: 924
- Compound: "Cc1cc(-n2c(C)cc(-c3csc(N)n3)c2C)no1"
  Measured target: "NSP1 (Severe acute respiratory syndrome coronavirus 2)"
  Observation type: "nsp1 signal, mean of duplicate wells"
  Measured result: 1183
- Compound: "Cn1c(=O)c2ccccc2n2c(CNC(c3ccc4c(c3)CCC4)c3cccs3)nnc12 (stereo not shown)"
  Measured target: "NSP1 (Severe acute respiratory syndrome coronavirus 2)"
  Observation type: "nsp1 signal, mean of duplicate wells"
  Measured result: 841.5
- Compound: "O=c1cc(CN2CCOCC2)occ1OCCCCCSc1ccnc2cc(C(F)(F)F)ccc12"
  Measured target: "NSP1 (Severe acute respiratory syndrome coronavirus 2)"
  Observation type: "nsp1 signal, mean of duplicate wells"
  Measured result: 857.5
- Compound: "CN1CCN(S(=O)(=O)c2ccc(N3Cc4cc5c(cc4C4(CCCC4)C3)OCCO5)nc2)CC1"
  Measured target: "NSP1 (Severe acute respiratory syndrome coronavirus 2)"
  Observation type: "nsp1 signal, mean of duplicate wells"
  Measured result: 181.5
- Compound: "Cc1ccc(C(=O)c2cc(O)c(O)c([N+](=O)[O-])c2)cc1"
  Measured target: "NSP1 (Severe acute respiratory syndrome coronavirus 2)"
  Observation type: "nsp1 signal, mean of duplicate wells"
  Measured result: 1210.5
- Compound: "O=C(CSc1nc(-c2ccccc2)cn1-c1ccccc1)NC(=O)Nc1ccccc1"
  Measured target: "NSP1 (Severe acute respiratory syndrome coronavirus 2)"
  Observation type: "nsp1 signal, mean of duplicate wells"
  Measured result: 1046.5
- Compound: "CN(C)CC1CCn2cc(c3ccccc32)C2=C(C(=O)NC2=O)c2cn(c3ccccc23)CCO1 (stereo not shown)"
  Measured target: "NSP1 (Severe acute respiratory syndrome coronavirus 2)"
  Observation type: "nsp1 signal, mean of duplicate wells"
  Measured result: 180.5

###

Each item that follows carries a reported IC50.
Measured target: eIF1A-RPS10 interaction (Homo sapiens, UniProt P46783+P47813)
Construct: made in house; host or cells: E. coli BL21 (PRSFduet); unpurified lysate supernatant
Sequence (P47813 whole entry, one chain of several): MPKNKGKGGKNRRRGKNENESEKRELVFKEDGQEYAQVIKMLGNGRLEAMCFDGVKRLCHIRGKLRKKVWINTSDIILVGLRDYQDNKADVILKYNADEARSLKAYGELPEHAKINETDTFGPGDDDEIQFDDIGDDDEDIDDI
Assay procedure: Split-Renilla luciferase eIF1A-RPS10 interaction screen, dose-response
Format: biochemical
Measurement context: Appendix Table S1; read-out: IC50 from the split RL screen
Observation type: IC50

- Compound: "COc1ccc(CN(Cc2nn3c(=O)cc(C)nc3s2)C(C)Cc2cccs2)cc1 (stereo not drawn)"
  Observation type: "IC50"
  Measured result: "18 µM"
- Compound: "NS(=O)(=O)c1cccc(-c2ccc(C3Nc4ccccc4-c4nc5ccccc5n43)o2)c1 (stereo not drawn)"
  Observation type: "IC50"
  Measured result: "26 µM"
- Compound: "COc1cccc(Nc2nc(-c3ccc(NC(C)=O)cc3)c(C)s2)c1"
  Observation type: "IC50"
  Measured result: "18 µM"
- Compound: "COC(=O)C1=C(C)NC2=C(C(=O)CC(c3ccc(F)cc3)C2)C1c1ccc(N(C)C)cc1Cl (stereo not drawn)"
  Observation type: "IC50"
  Measured result: "16 µM"
- Compound: "CNc1nc(-c2cc(C)n(C)c2C)cs1"
  Observation type: "IC50"
  Measured result: "27 µM"
- Compound: "c1csc(-c2nc(NCc3nnc4ccccn34)c3ccccc3n2)c1"
  Observation type: "IC50"
  Measured result: "29 µM"
- Compound: "O=c1cc(CN2CCOCC2)occ1OCCCCCSc1ccnc2cc(C(F)(F)F)ccc12"
  Observation type: "IC50"
  Measured result: "30 µM"
- Compound: "CCOC(=O)c1ccsc1NC(=O)CN1C(=O)NC(C)(c2cccc3ccccc23)C1=O (stereo not drawn)"
  Observation type: "IC50"
  Measured result: "14 µM"
- Compound: "O=S(=O)(Cc1cc(Cl)c2c(c1)OCCO2)Cc1nc(-c2ccccc2)no1"
  Observation type: "IC50"
  Measured result: "15 µM"
- Compound: "O=C(Nc1nc(-c2c[nH]c3ccccc23)cs1)c1cc(=O)[nH]c2ccccc12"
  Observation type: "IC50"
  Measured result: "17 µM"
- Compound: "COc1ccc2oc(C(=O)OC(C)C(=O)Nc3sccc3C(N)=O)c(C)c2c1 (stereo not drawn)"
  Observation type: "IC50"
  Measured result: "15 µM"
- Compound: "O=C1c2ccccc2NC(c2cc(Cl)c3c(c2)OCO3)N1C1CC1 (stereo not drawn)"
  Observation type: "IC50"
  Measured result: "24 µM"
